Listing of entries alongside the reported MAGE-A4/MAGE-A8 (ratio of % tetramer in Ag+ gate).
- assay.target: T1, soluble HLA-A2 MAGE-A4 (…) tetramer (human)
- T1 construct: Bought tetramer reagent; also called MAGE-A4/HLA tetramer reagent; HLA-A02:01 MAGE-A4 tetramer
- assay.notes: flow cytometry tetramer staining; % with MAGE-A4 tetramer divided by % with MAGE-A8 tetramer (reference)
quantity: MAGE-A4/MAGE-A8 (ratio of % tetramer in Ag+ gate)

binder: PN45593 (TCR, V domains shown, stained with anti-mouse TCR constant region H57-597; full-length chains on transfected CHO cells; also called TCR No. 40) V domain 1: AQKITQTQPGMFVQEKEAVTLDCTYDTSDPSYGLFWYKQPSSGEMIFLIYQGSYDQQNATEGRYSLNFQKARKSANLVISASQLGDSAMYFCAMREGPGNNARLMFGDGTQLVVKP V domain 2: NAGVTQTPKFRVLKTGQSMTLLCAQDMNHEYMYWYRQDPGMGLRLIHYSVGEGTTAKGEVPDGYNVSRLKKQNFLLGLESAAPSQTSVYFCASSYWDRGSPLHFGNGTRLTVT
val: 991
--
binder: PN45494 (TCR, V domains shown, full-length chains on transfected CHO cells; also called TCR No. 50) V domain 1: GNSVTQIEGPVTLSEEAFLTINCTYTATGYPSLFWYVQYPGEGLQLLLKATKADDKGSNKGFEATYRKETTSFHLEKGSVQVSDSAVYFCALSDTRDDKTIFGKGTRLHILP V domain 2: DVKVTQSSRYLVKRTGEKVFLECVQDMDHENMFWYRQDPGLGLRLIYFSYDVKMKEKGDIPEGYSVSREKKERFSLILESASTNQTSMYLCASSLQGRYYGYTFGSGTRLTVV
val: 1.97
--
binder: PN45418 (TCR, V domains shown, stained with anti-mouse TCR constant region H57-597; full-length chains on transfected CHO cells; also called TCR No. 46) V domain 1: EDQVTQSPEALRLQEGESSSLNCSYTVSGLRGLFWYRQDPGKGPEFLFTLYSAGEEKEKERLKATLTKKESFLHITAPKPEDSATYLCAVQPSYSGAGSYQLTFGKGTKLSVIP V domain 2: EAQVTQNPRYLITVTGKKLTVTCSQNMNHEYMSWYRQDPGLGLRQIYYSMNVEVTDKGDVPEGYKVSRKEKRNFPLILESPSPNQTSLYFCASSPGTGGFSPLHFGNGTRLTVT
val: 9.92
--
binder: PN45515 (TCR, V domains shown, stained with anti-mouse TCR constant region H57-597; full-length chains on transfected CHO cells; also called TCR No. 39) V domain 1: DAKTTQPPSMDCAEGRAANLPCNHSTISGNEYVYWYRQIHSQGPQYIIHGLKNNETNEMASLIITEDRKSSTLILPHATLRDTAVYYCIVRPYNAGNNRKLIWGLGTSLAVNP V domain 2: DVKVTQSSRYLVKRTGEKVFLECVQDMDHENMFWYRQDPGLGLRLIYFSYDVKMKEKGDIPEGYSVSREKKERFSLILESASTNQTSMYLCASSFGGGYYGYTFGSGTRLTVV
val: 1150
--
binder: PN45557 (TCR, V domains shown, full-length chains on transfected CHO cells; also called TCR No. 52) V domain 1: AQKITQTQPGMFVQEKEAVTLDCTYDTSDPSYGLFWYKQPSSGEMIFLIYQGSYDQQNATEGRYSLNFQKARKSANLVISASQLGDSAMYFCAMREGPGSGNTGKLIFGQGTTLQVKP V domain 2: NAGVTQTPKFRILKIGQSMTLQCAQDMNHNYMYWYRQDPGMGLKLIYYSVGAGITDKGEVPNGYNVSRSTTEYFPLRLELAAPSQTSVYFCASSYSEWQNYGYTFGSGTRLTVV
val: 1.43
